Listed below: Percent Control values for each entry.
System: PRKR;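 further: KINOMEscan scanMAX binding as percent activity remaining versus control; lower means stronger binding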
Construct: gene EIF2AK2
CONDITION: Compound Concentration (nM):1000
RECORDED_ENDPOINT: Percent Control (%)

- COMPOUND: "C[C@@H](Oc1cc(-n2cnc3ccc(OC4CCN(C)CC4)cc32)sc1C(N)=O)c1ccccc1Cl [GSK579289A]"
  TARGET_OR_SYSTEM: "PRKR"
  RECORDED_ENDPOINT: "Percent Control"
  RESULT: 80
- COMPOUND: "COc1cc2ncn(-c3cc(O[C@H](C)c4ccccc4Cl)c(C(N)=O)s3)c2cc1OC [GSK237701A]"
  TARGET_OR_SYSTEM: "PRKR"
  RECORDED_ENDPOINT: "Percent Control"
  RESULT: 82
- COMPOUND: "COc1cc(N2CCN(C(C)C)CC2)ccc1Nc1nc(Nc2ccc(F)cc2C(=O)NC[C@@H](O)CO)c2cc[nH]c2n1 [GSK1392956A]"
  TARGET_OR_SYSTEM: "PRKR"
  RECORDED_ENDPOINT: "Percent Control"
  RESULT: 80
